- target: T1, human BCMA expressed on cell surface (H929, OPM-2, CHOK1-hBCMA cells) (human, UniProt Q02223 1-184)
- T1 construct: also called cell-surface BCMA; BCMA on cell surface
- T1 sequence: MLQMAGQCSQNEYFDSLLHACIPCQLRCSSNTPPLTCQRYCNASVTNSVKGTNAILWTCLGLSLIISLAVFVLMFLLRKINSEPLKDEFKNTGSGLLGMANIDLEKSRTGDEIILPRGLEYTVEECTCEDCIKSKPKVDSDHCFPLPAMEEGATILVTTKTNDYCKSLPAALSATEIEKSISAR
- protocol.text: FACS on OPM-2 cells, 10 µg/ml antibody, anti-human Fc-FITC; open histogram shifted right of the filled control
measure: MFI
Give bare numbers.

Sure, the documented MFI for anti-BCMA IgG antibody 5D5 (antibody, V domains shown, also called 5D5 WT; 5D5 antibody) VH: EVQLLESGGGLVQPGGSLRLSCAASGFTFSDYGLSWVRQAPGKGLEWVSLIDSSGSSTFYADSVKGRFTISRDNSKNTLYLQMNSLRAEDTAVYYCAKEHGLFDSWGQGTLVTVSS VL: EIVLTQSPGTLSLSPGERATLSCKASQDIDDDINWYQQKPGQAPRLLIYDASLRATGIPDRFSGSGSGTDFTLTISRLEPEDFAVYYCQQSLRTPITFGQGTKLEIKR is 21.8

Just for reference, patent US20210284749A1 is where these values come from.
